Consider the following compounds; for each one, report its IC50.
experimentalSystem: T cell α4β7 integrin (Homo sapiens, UniProt P13612+P26010)
Construct: Blood samples were obtained from healthy volunteers' blood donation; endogenous in cells; host or cells: CD4-positive T cells in whole blood of healthy human volunteers
experimentalDetails: Human MAdCAM-1/α4β7 integrin binding inhibitory activity evaluation test in whole human blood
Assay type: cell-based
assayContext: recombinant human MAdCAM-1/Fc, CD4 positive cells, flow cytometry
Answers are plain numbers, in nM.

Examples with their reported IC50 follow.
# smilesRepr, experimentalSystem, IC50 (nM)
rows = [
    ("Cc1cc(=O)n(-c2ccc(C[C@H](NC(=O)c3cc(F)c(NS(=O)(=O)c4ccc(NC(=O)C(C)(C)C)cc4)cc3F)C(=O)O)cn2)c(=O)n1C", "T cell α4β7 integrin (Homo sapiens, UniProt P13612+P26010)", 1.5),
    ("Cn1ccc(=O)n(-c2ccc(C[C@H](NC(=O)c3cc(F)c(NS(=O)(=O)c4ccc(NC(=O)C(C)(C)C)cc4)cc3F)C(=O)O)cn2)c1=O", "T cell α4β7 integrin (Homo sapiens, UniProt P13612+P26010)", 2.9),
]

Now for the compound whose IC50 we want.
## Task Lookup: IC50 / T cell α4β7 integrin (Homo sapiens, UniProt P13612+P26010) / `Cc1cn(C)c(=O)n(-c2ccc(C[C@H](NC(=O)c3cc(F)c(NS(=O)(=O)c4ccc(NC(=O)C(C)(C)C(F)(F)F)cc4)cc3F)C(=O)O)cn2)c1=O`
## Result 5.1

###

experimentalSystem: α4β7 integrin (Homo sapiens, UniProt P13612+P26010)
Construct: a cell line RPMI-8866, which is known to express α4β7 integrin; endogenous in cells; host or cells: RPMI-8866 (human B cell line)
Sequence (P13612 34-1032): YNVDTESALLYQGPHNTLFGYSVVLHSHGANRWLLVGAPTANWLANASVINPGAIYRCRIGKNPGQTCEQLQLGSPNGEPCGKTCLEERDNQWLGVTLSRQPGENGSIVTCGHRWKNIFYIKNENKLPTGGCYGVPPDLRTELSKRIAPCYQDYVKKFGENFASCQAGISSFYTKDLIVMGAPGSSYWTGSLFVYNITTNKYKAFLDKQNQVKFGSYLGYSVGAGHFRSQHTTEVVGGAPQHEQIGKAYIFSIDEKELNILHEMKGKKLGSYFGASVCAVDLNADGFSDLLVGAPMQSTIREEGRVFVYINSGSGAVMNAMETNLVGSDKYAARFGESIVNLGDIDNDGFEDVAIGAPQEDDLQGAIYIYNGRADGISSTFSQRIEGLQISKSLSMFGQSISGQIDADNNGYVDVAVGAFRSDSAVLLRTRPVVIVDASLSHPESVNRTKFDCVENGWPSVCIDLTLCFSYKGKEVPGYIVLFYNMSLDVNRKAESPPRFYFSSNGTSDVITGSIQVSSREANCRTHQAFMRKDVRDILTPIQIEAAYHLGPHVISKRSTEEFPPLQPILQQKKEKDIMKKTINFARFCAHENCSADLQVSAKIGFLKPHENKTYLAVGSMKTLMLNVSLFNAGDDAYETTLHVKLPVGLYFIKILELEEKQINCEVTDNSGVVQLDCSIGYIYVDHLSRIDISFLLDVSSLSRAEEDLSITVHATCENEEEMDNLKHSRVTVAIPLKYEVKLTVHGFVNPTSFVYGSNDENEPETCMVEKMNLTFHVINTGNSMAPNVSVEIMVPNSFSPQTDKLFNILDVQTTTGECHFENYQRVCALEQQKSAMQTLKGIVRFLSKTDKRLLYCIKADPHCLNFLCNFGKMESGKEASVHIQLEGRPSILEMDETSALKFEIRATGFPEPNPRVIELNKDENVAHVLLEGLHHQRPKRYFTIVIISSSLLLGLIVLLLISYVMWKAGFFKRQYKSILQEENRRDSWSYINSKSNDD
Sequence (P26010 20-798): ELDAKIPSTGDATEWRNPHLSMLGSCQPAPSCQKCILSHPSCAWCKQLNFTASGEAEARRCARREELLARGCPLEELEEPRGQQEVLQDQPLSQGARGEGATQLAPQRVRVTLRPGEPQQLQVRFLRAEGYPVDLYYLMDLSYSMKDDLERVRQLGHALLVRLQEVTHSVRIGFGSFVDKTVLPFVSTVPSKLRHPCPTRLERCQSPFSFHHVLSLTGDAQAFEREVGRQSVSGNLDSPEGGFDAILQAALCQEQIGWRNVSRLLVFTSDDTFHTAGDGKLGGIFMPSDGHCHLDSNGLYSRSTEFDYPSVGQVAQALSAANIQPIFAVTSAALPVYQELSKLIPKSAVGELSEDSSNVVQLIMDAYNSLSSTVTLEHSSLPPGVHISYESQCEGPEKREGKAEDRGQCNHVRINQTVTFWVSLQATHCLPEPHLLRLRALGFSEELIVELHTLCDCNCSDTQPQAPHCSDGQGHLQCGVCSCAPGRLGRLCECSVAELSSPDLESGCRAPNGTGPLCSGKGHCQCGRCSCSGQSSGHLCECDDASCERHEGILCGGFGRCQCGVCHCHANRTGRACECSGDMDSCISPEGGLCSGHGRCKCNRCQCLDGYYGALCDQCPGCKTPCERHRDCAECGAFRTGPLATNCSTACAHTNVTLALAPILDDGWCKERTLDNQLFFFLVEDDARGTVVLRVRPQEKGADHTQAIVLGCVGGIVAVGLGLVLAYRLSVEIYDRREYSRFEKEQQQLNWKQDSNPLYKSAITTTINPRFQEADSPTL
experimentalDetails: MAdCAM-1/α4β7 integrin binding inhibitory activity evaluation test (RPMI-8866 cells binding to MAdCAM-1/Fc)
Type: cell-based
assayContext: recombinant mouse MAdCAM-1/Fc, no serum
recordedEndpoint: log10 of IC50 (log10 of the value in nM)
Kindly note that the scale is log10 and the underlying IC50 is in nM.

# smilesRepr, experimentalSystem, log10 of IC50
data = [
    ("Cn1ccc(=O)n(-c2ccc(C[C@H](NC(=O)c3cc(F)c(NS(=O)(=O)c4ccc(NC(=O)C5CCCC5)cc4)cc3F)C(=O)O)cn2)c1=O", "α4β7 integrin (Homo sapiens, UniProt P13612+P26010)", 0.74),
    ("Cn1c2c(c(=O)n(-c3ccc(C[C@H](NC(=O)c4cc(F)c(NS(=O)(=O)c5ccc(NC(=O)C(C)(C)C)cc5)cc4F)C(=O)O)cn3)c1=O)CCCC2", "α4β7 integrin (Homo sapiens, UniProt P13612+P26010)", -0.15),
    ("CN1CCC(=O)N(c2ccc(C[C@H](NC(=O)c3cc(F)c(NS(=O)(=O)c4ccc(NC(=O)C(C)(C)C)cc4)cc3F)C(=O)O)cn2)C1=O", "α4β7 integrin (Homo sapiens, UniProt P13612+P26010)", 0.60),
    ("Cn1c(=O)n(-c2ccc(C[C@H](NC(=O)c3cc(F)c(NS(=O)(=O)c4ccc(NC(=O)NC(C)(C)C)cc4)cc3F)C(=O)O)cc2)c(=O)c2ccncc21", "α4β7 integrin (Homo sapiens, UniProt P13612+P26010)", 0.36),
    ("Cc1cn(C)c(=O)n(-c2ccc(C[C@H](NC(=O)c3cc(F)c(NS(=O)(=O)c4ccc(NC(=O)C(C)(C)C)cc4)cc3F)C(=O)O)nc2)c1=O", "α4β7 integrin (Homo sapiens, UniProt P13612+P26010)", 0.26),
]

Fill in log10 of IC50 for each of the 2 molecules listed.
1. Cc1c(C)n(C)c(=O)n(-c2ccc(C[C@H](NC(=O)c3cc(F)c(NS(=O)(=O)c4ccc(-n5ccc(C6CCOCC6)cc5=O)cc4)cc3F)C(=O)O)cc2)c1=O
2. Cc1cn(C)c(=O)n(-c2ccc(C[C@H](NC(=O)c3cc(F)c(NS(=O)(=O)c4ccc(NC(=O)C5(C#N)CC5)cc4)cc3F)C(=O)O)cn2)c1=O

## Result
1: 0.53; 2: 0.36

Fill in log10 of IC50 for each of the 8 molecules listed.
1. Cn1c(=O)n(-c2ccc(C[C@H](NC(=O)c3cc(F)c(NS(=O)(=O)c4ccc(NC(=O)C(C)(C)C)s4)cc3F)C(=O)O)cc2)c(=O)c2ccncc21
2. CCC(CC)C(=O)Nc1ccc(S(=O)(=O)Nc2cc(F)c(C(=O)N[C@@H](Cc3ccc(-n4c(=O)c5ccncc5n(C)c4=O)cc3)C(=O)O)cc2F)cc1
3. COC1(C(=O)Nc2ccc(S(=O)(=O)Nc3cc(F)c(C(=O)N[C@@H](Cc4ccc(-n5c(=O)c(C)c(C)n(C)c5=O)cc4)C(=O)O)cc3F)cc2)CC1
4. Cn1ccc(=O)n(-c2ccc(C[C@H](NC(=O)c3cc(F)c(NS(=O)(=O)c4ccc(NC(=O)C(C)(C)CO)cc4)cc3F)C(=O)O)cn2)c1=O
5. Cc1cn(C)c(=O)n(-c2ccc(C[C@H](NC(=O)c3cc(F)c(NS(=O)(=O)c4ccc(NC(=O)C(C)(C)C)s4)cc3F)C(=O)O)cn2)c1=O
6. Cn1c(=O)n(-c2ccc(C[C@H](NC(=O)c3cc(F)c(NS(=O)(=O)c4ccc(NC(=O)C(C)(C)C)c(F)c4)cc3F)C(=O)O)cc2)c(=O)c2ccncc21
7. Cc1c(C)n(C)c(=O)n(-c2ccc(C[C@H](NC(=O)c3cc(F)c(NS(=O)(=O)c4cccc(NC(=O)C(C)(C)C)c4)cc3F)C(=O)O)cn2)c1=O
8. Cn1cc(C(F)(F)F)c(=O)n(-c2ccc(C[C@H](NC(=O)c3cc(F)c(NS(=O)(=O)c4ccc(NC(=O)C(C)(C)C)cc4)cc3F)C(=O)O)cn2)c1=O

## Result
1. -0.39
2. -0.14
3. -0.26
4. 0.69
5. 0.34
6. -0.35
7. 0.81
8. 0.28

Fill in log10 of IC50 for each of the 6 molecules listed.
1. Cn1c(=O)n(-c2ccc(C[C@H](NC(=O)c3cc(F)c(NS(=O)(=O)c4ccc(NC(=O)C(C)(C)C)cc4)cc3F)C(=O)O)cn2)c(=O)c2ccncc21
2. Cc1cn(C)c(=O)n(-c2ccc(C[C@H](NC(=O)c3cc(F)c(NS(=O)(=O)c4ccc(NC(=O)C(C)(C)C)cc4)cc3F)C(=O)O)cn2)c1=O
3. Cc1cc(=O)n(-c2ccc(C[C@H](NC(=O)c3cc(F)c(NS(=O)(=O)c4ccc(NC(=O)C(C)(C)C)cc4)cc3F)C(=O)O)cn2)c(=O)n1C
4. CN1CCc2c(n(C)c(=O)n(-c3ccc(C[C@H](NC(=O)c4cc(F)c(NS(=O)(=O)c5ccc(NC(=O)C(C)(C)C)cc5)cc4F)C(=O)O)cc3)c2=O)C1
5. CC(=O)Nc1ccc(S(=O)(=O)Nc2cc(F)c(C(=O)N[C@@H](Cc3ccc(-n4c(=O)c5ccncc5n(C)c4=O)cc3)C(=O)O)cc2F)cc1
6. Cc1cn(C)c(=O)n(-c2ccc(C[C@H](NC(=O)c3cc(F)c(NS(=O)(=O)c4ccc(NC(=O)C(C)(C)C(F)(F)F)cc4)cc3F)C(=O)O)cn2)c1=O

## Result
1: -0.64; 2: 0.20; 3: 0.20; 4: -0.54; 5: 0.08; 6: 0.11

## Task Reported log10 of IC50, molecule `Cn1ccc(=O)n(-c2ccc(C[C@H](NC(=O)c3cc(F)c(NS(=O)(=O)c4ccc(NC(=O)C(C)(C)C(F)(F)F)cc4)cc3F)C(=O)O)cn2)c1=O` : ____
## Result 0.30
